# credit: patent US9650405B2

assayRemarks: Emulsion droplet size distribution, Coulter LS 230 analyzer
Format: physicochemical
conditionNotes: paraffin oil-to-water 7:3 v/v, 1 weight %, 24 hours, 25° C.
readoutType: Average droplet size

Example entries and their recorded answers appear below.
molecule="CCCCCCOC(=O)CCCCCCCC=CCCCCCCC(C)OC1OC(CO)C(O)C(O)C1OC1OC(CO)C(O)C(O)C1O (centres unmarked) [Compound 16, SL-Hexyl Ester]" readouttype="Average droplet size" recordedvalue="2.1 ± 0.3 μm"
molecule="CCCCCCCCCCCCOS(=O)(=O)[O-].[Na+] [SDS, Sodium dodecyl sulfate, reference compound]" readouttype="Average droplet size" recordedvalue="2.1 ± 0.1 μm"
molecule="CCCCNC(=O)CCCCCCCC=CCCCCCCC(C)OC1OC(CO)C(O)C(O)C1OC1OC(CO)C(O)C(O)C1O (centres unmarked) [Compound 24, SL-Butyl Amide]" readouttype="Average droplet size" recordedvalue="2.5 ± 0.2 μm"
molecule="CCCCCCNC(=O)CCCCCCCC=CCCCCCCC(C)OC1OC(CO)C(O)C(O)C1OC1OC(CO)C(O)C(O)C1O (centres unmarked) [Compound 25, SL-Hexyl Amide]" readouttype="Average droplet size" recordedvalue="2.7 ± 0.2 μm"

Consider the record given below.
Challenge: Could you tell me which Average droplet size is on file for CCCCOC(=O)CCCCCCCC=CCCCCCCC(C)OC1OC(CO)C(O)C(O)C1OC1OC(CO)C(O)C(O)C1O (centres unmarked) [Compound 8, SL-Butyl Ester] ?
Response given: 2.4 ± 0.3 μm
